Tested on: secondary alcohol dehydrogenase (SADH)
Assay: Substrate specificity and Michaelis constants of purified SADH
Assay type: biochemical, Pseudomonas sp. ATCC 21439
reportedProperty: Oxidation by purified SADH (in words)

Answered cases to consult:
# compound, Oxidation by purified SADH (in words)
rows = [
    ("CCC(C)O (stereo not drawn) [2-butanol]", "highest"),
    ("CCC=O [propanal]", "oxidized at a lower rate"),
    ("C=O [formaldehyde]", "not oxidized"),
    ("CC(C)O [2-propanol]", "highest"),
    ("O=Cc1ccccc1 [benzaldehyde]", "not oxidized"),
]

Next compound, please.
Recorded Oxidation by purified SADH (in words) (compound Oc1ccccc1 [phenol] ): not oxidized

###

Exercise: state measured % inhibition of methane-hydroxylating activity for each of the compounds provided.
System: P(40) fraction of Methylosinus sp. (CRL-15, NRRL B-11,202)
Test: Effect of inhibitors on propylene epoxidation and methane hydroxylation by P(40) fraction (Table XI)
Assay type: biochemical
Conditions: inhibitor 10^-3 M
Your answer is read as %, so omit the unit and give the number.

get_value(item= NNC(N)=S [Thiosemicarbazide] , readout=% inhibition of methane-hydroxylating activity) returns 100

Entry under test: Oc1cccc2cccnc12 [8-Hydroxyquinoline] . Its % inhibition of methane-hydroxylating activity was 80

Lab book: % inhibition of methane-hydroxylating activity of c1ccc(-c2ccccn2)nc1 noted as 99

What the record says about c1cnc2c(c1)ccc1cccnc12 : % inhibition of methane-hydroxylating activity is 90

Reported % inhibition of methane-hydroxylating activity ( NC(N)=S ) = 98

###

System: purified secondary alcohol dehydrogenase
Experiment: Inhibition of purified yeast secondary alcohol dehydrogenase
Format: biochemical, Pichia sp. NRRL Y-11,328
Settings: purified yeast enzyme
reportedProperty: Inhibition of secondary alcohol dehydrogenase activity (in words)

# compound, targetSystem, endpointValue
records = [
    ("O=[N+]([O-])[O-].[Ag+] [silver nitrate]", "purified secondary alcohol dehydrogenase", "inhibited"),
    ("c1cnc2c(c1)ccc1cccnc12 [1,10-phenanthroline]", "purified secondary alcohol dehydrogenase", "strongly inhibited"),
    ("O=S(=O)([O-])[O-].[Cu+2] [Cupric Sulfate]", "purified secondary alcohol dehydrogenase", "inhibited"),
    ("N[C@@H](CCC(=O)N[C@@H](CS)C(=O)NCC(=O)O)C(=O)O [glutathione]", "purified secondary alcohol dehydrogenase", "strongly inhibited"),
    ("c1c[nH]cn1 [Imidazole]", "purified secondary alcohol dehydrogenase", "strongly inhibited"),
]

For record O=C(O)c1cc[c]([Hg+])cc1.[OH-] [p-hydroxymercuribenzoate] the listed Inhibition of secondary alcohol dehydrogenase activity (in words) is strongly inhibited

Form field Inhibition of secondary alcohol dehydrogenase activity (in words), entry N#C[S][Hg][S]C#N [mercuric thiocyanate] : inhibited

###

Test system: secondary alcohol dehydrogenase (SADH)
Assay: Inhibition of purified secondary alcohol dehydrogenase (SADH)
Type: biochemical, Pseudomonas sp. ATCC 21439
Conditions: inhibitor 1 mM, measured spectrofluorometrically
So I've got a bunch of compounds here, and I need their % inhibition of SADH activity values.
Kindly answer with a numeric value in %, unit omitted.

Sample [Zn+2] , system: secondary alcohol dehydrogenase (SADH). Its % inhibition of SADH activity is 0

Result for [Co+2] , tested on secondary alcohol dehydrogenase (SADH), % inhibition of SADH activity: 0

Form: item NC(N)=S ; test system secondary alcohol dehydrogenase (SADH); % inhibition of SADH activity: 0

// returns % inhibition of SADH activity for [Fe+2] with secondary alcohol dehydrogenase (SADH); value = 50

# % inhibition of SADH activity measured on secondary alcohol dehydrogenase (SADH) for item c1ccc(-c2ccccn2)nc1 = 70

# value of % inhibition of SADH activity, secondary alcohol dehydrogenase (SADH), item [Ni+2] = 20

secondary alcohol dehydrogenase (SADH) data for O=C(O)c1cc[c]([Hg+])cc1.[OH-] [p-hydroxymercuribenzoate] ; its % inhibition of SADH activity: 100

Hey, secondary alcohol dehydrogenase (SADH) data for CCN1C(=O)C=CC1=O [N-ethylmalemide] : % inhibition of SADH activity came out at 6

Record [Mg+2] has secondary alcohol dehydrogenase (SADH) % inhibition of SADH activity equal to 0

Readout % inhibition of SADH activity for c1cnc2c(c1)ccc1cccnc12 , test system secondary alcohol dehydrogenase (SADH), was 95

Recorded % inhibition of SADH activity for [Fe+3] on secondary alcohol dehydrogenase (SADH) was 35

The value of % inhibition of SADH activity recorded for [Mn+2] when tested on secondary alcohol dehydrogenase (SADH) reads 0

Considering [N-]=[N+]=[N-] [Sodium azide] , its % inhibition of SADH activity with secondary alcohol dehydrogenase (SADH) was recorded as 10

The compound [Cu+2] on secondary alcohol dehydrogenase (SADH): % inhibition of SADH activity was 25

Tested on secondary alcohol dehydrogenase (SADH), the item O=C(O)c1cc(SSc2ccc([N+](=O)[O-])c(C(=O)O)c2)ccc1[N+](=O)[O-] showed % inhibition of SADH activity equal to 100
